src = patent EP0094245A2

- System: Male Wistar rats
- assay: Carrageenin oedema test for anti-inflammatory activity
- Assay type: in vivo
- experimental-conditions: Rattus norvegicus, po, inhibitory rate, 100 mg/kg per os, paw volume 3 hours after carrageenin injection
I would appreciate it if you labelled entries 1 when inhibition in vivo at 100 mg/kg is 60% or higher, otherwise -1.

- smiles-text: "COc1ccc2c(n1)C(C)=CC(C)(C)N2C"
  study-target: "Male Wistar rats"
  class-label: -1
- smiles-text: "CCCCOc1ccc2c(n1)C(C)=CC(C)(C)N2"
  study-target: "Male Wistar rats"
  class-label: 1
- smiles-text: "COc1ccc2c(n1)C(C)=CC(C)(C)N2C(C)=O"
  study-target: "Male Wistar rats"
  class-label: -1
- smiles-text: "CC1=CC(C)(C)Nc2ccc(Cl)nc21"
  study-target: "Male Wistar rats"
  class-label: -1
- smiles-text: "CC1=CC(C)(C)Nc2ccc(Oc3ccccc3)nc21"
  study-target: "Male Wistar rats"
  class-label: -1

Exam item: decide whether the reported inhibition in vivo at 100 mg/kg for COc1ccc2c(n1)C(C)=CC(C)(C)N2 is at least 60%.
1

Here is the next molecule: CC1=CC(C)(C)Nc2ccc(Oc3cccnc3)nc21
1
